- studyTarget: SOS1 and KRAS G12D (protein-protein interaction) (Homo sapiens, UniProt Q07889)
- testName: KRAS::SOS1 AlphaScreen binding assay
- protocolConditions: assay buffer with 100 μM EDTA (values marked with an asterisk); read-out: IC50 (SOS1)
assayEndpoint: pIC50
Numbers only, as −log10 of the molar value.

inputSmiles: Cc1nc(N[C@H](C)c2cccc(C(F)(F)F)c2)c2cc(-c3cnn(C4CCNCC4)c3)ccc2n1
pIC50: 7.32

For the 2 compounds below, give their pIC50 values.
1. Cc1nc(N[C@H](C)c2cccc(C(F)(F)F)c2)c2cc(C3CCNCC3)ccc2n1
2. Cc1cccc([C@@H](C)Nc2nc(C)nc3ccc(C4CCS(=O)(=O)CC4)cc23)c1

7.66
7.54

All values here come from patent US12053473B2.
